Please provide measured Emax for the entries that follow.
Molecular target: LPAR1 (Homo sapiens)
Construct: host or cells: U2OS
Test: LPAR1 Arrestin Assay (arrestin reporter assay)
Type: cell-based
Details: U2OS cells stably expressing the LPAR1 receptor; 200 nM 18:1 LPA (EC80); read-out: Maximum Inhibition
Give bare numbers, in %.

Sample answers from the record:
compound: COc1cc(C(=O)N(CCCc2ccc(C)o2)CCCC(C)(O)C(=O)O)cc(OC)c1C (centres unmarked) [Example 174]
value: 118
--
compound: COc1cc(C(=O)N(CCCCC(=O)O)CCCc2c(F)cccc2F)cc(OC)c1C [Example 147]
value: 122
--
compound: COc1cc(C(=O)N(CCCCC(=O)NS(C)(=O)=O)CCCc2ccccc2)cc(OC)c1C [Example 111]
value: 116
--
compound: COc1ccc(C2(C(=O)N(CCCCC(=O)O)CCCc3ccccc3)CC2)cc1 [Example 8]
value: 112
--
compound: COc1cc(C(=O)N(CCCc2ccc(C)o2)CCSCC(=O)O)cc(OC)c1C [Example 132]
value: 126

For each entry beneath this line, provide reported Emax.
1. COc1cc(C(=O)N(CCCc2ccccc2)CC(=O)NC2(C(=O)O)CC2)cc(OC)c1C [Example 3]
2. COc1cc(C(=O)N(CCCc2ccccc2)CCOCP(=O)(O)O)cc(OC)c1C [Example 50]
3. COc1cc(C(=O)N(CCCc2ccccc2)CCOC(=O)NS(C)(=O)=O)cc(OC)c1C [Example 184]

### Response
1: 110; 2: 103; 3: 99

---

Target: LPAR1 (Homo sapiens, UniProt Q92633)
Construct: host or cells: U2OS
Sequence (Q92633 whole entry): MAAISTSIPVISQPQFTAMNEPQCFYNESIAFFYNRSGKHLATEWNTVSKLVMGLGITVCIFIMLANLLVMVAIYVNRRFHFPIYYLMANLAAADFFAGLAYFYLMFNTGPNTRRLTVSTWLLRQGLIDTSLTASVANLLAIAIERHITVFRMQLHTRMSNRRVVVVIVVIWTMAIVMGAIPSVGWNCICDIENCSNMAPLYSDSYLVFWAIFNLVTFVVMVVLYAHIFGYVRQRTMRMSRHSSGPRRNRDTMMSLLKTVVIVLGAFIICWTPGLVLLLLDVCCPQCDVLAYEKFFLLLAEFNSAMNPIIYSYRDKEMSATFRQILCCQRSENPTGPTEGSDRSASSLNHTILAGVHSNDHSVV
Test: LPAR1 Arrestin Assay (arrestin reporter assay)
Assay type: cell-based
Details: U2OS cells stably expressing the LPAR1 receptor; 200 nM 18:1 LPA (EC80); read-out: Maximum Inhibition
endpoint.name: Emax (%)
One number for each entry, in %.

Take a look at these entries with their results.
compound: COc1cc(C(=O)N(CCCCC(=O)O)CCCc2ccc(F)cc2)cc(OC)c1C
unit.text: %
Emax: 115

compound: COc1cc(C(=O)N(CCCCC(=O)O)CCCc2ccccc2)cc(OC)c1C1CC1
unit.text: %
Emax: 103

compound: COc1cc(C(=O)N(CCCc2cccc(F)c2)CCOCC(=O)O)cc(OC)c1C
unit.text: %
Emax: 124

compound: COc1cc(C(=O)N(CCCCC(=O)O)CCCc2ccccc2F)cc(OC)c1C
unit.text: %
Emax: 112

compound: COc1cc(C(=O)N(CCCc2ccccc2)CCC[C@@H](C)C(=O)O)cc(OC)c1C (single isomer, unassigned)
unit.text: %
Emax: 102

// batch mode: one Emax value per listed entry
1. COc1cc(C(=O)N(CCCc2ccccc2)CCOCC(=O)NS(C)(=O)=O)cc(OC)c1C
2. COc1cc(C(=O)N(CCCc2ccccc2F)CCSCC(=O)O)cc(OC)c1C

### Response
[128, 108]

---

Molecular target: LPAR1 (Homo sapiens, UniProt Q92633)
Construct: host or cells: U2OS
Experiment: IP-One HTRF Assay
Assay type: cell-based
Details: U2OS cells stably expressing LPAR1; LPA stimulation; IP-One Tb HTRF kit; read-out: Maximum Inhibition
Description: U2OS cells stably expressing LPAR1 (Life Technologies #K1519A) were plated at 20000 cells/well in growth medium (McCoy's 5A(Life Technologies #16600-082)) with 10% dFBS (Life Technologies #26400-036), 0.1 mM non-essential amino acids, 25 mM HEPES, 1 mM sodium pyruvate, 1% penicillin/streptomycin, 50 μg/mL hygromycin, and 100 μg/mL Geneticin® in tissue culture treated 384-well white plates (Greiner #781080) in humidified 5% CO2 at 37° C. overnight. […]
Quick rule: Emax of at least 80% means t, below that means f.

### Prompt Please tell me: is the molecule `COc1cc(C(=O)N(CCCc2ccccc2Cl)CCOCC(=O)O)cc(OC)c1C` at or over 80% in terms of Emax?
### Response t

### Prompt Is Emax for `COc1cc(C(=O)N(CCCCC(=O)O)CCCc2ccc(C)s2)cc(OC)c1C` at or above 80%?
### Response t

### Prompt I'd appreciate it if you could say whether `COc1cc(C(=O)N(CCCCC(=O)O)CCCc2ccccc2)cc(OC)c1C` has Emax at least equal to 80%.
### Response t

### Prompt Kindly determine if Emax recorded for `COc1cc(C(=O)N(CCCCC(=O)O)CCCc2cccc(C)c2)cc(OC)c1C` is above or exactly 80%.
### Response t

### Prompt API: above_or_equal(metric=Emax, cutoff=80%) for item `COc1cc(C(=O)N(CCCc2ccccc2)CC(=O)NC2(C(=O)O)Cc3ccccc3C2)cc(OC)c1C`
### Response f

### Prompt Could you please find out whether `CNS(=O)(=O)NC(=O)CCCCN(CCCc1ccccc1)C(=O)c1cc(OC)cc(OC)c1` has Emax that meets 80% or exceeds it?
### Response f

### Prompt Confirm if Emax reported for the molecule `COc1cc(C(=O)N(CCCc2ccccc2)CC(=O)NC2(C(=O)O)CCCCC2)cc(OC)c1C` is 80% or above.
### Response t

### Prompt // inclusive: Emax at least 80%? input: `COc1cc(C(=O)N(CCCc2ccccc2)CC(=O)NC2(C(=O)O)CC2)cc(OC)c1C`
### Response f

---

System: LPA-induced MCP-1 in NRK-49F cells
Test: LPA-induced MCP-1 AlphaLISA assay
Assay type: cell-based
Details: Rattus norvegicus, final LPA 10 μM, 7 hours, read-out: Maximum Inhibition
Emax of 80% or higher: YES. Under 80%: NO.

Check out these entries, answers already filled in.
molecule: COc1cc(C(=O)N(CCCc2ccccc2)CCSCC2(C(=O)O)CC2)cc(OC)c1C
tested.target: LPA-induced MCP-1 in NRK-49F cells
class.name: YES
//
molecule: COc1cc(OC)cc(C(=O)N(CCCCC(=O)O)CCCc2cccc(F)c2)c1
tested.target: LPA-induced MCP-1 in NRK-49F cells
class.name: NO
//
molecule: COc1cc(OC)cc(C(=O)N(CCCCC(=O)O)CCCc2ccc(C)o2)c1
tested.target: LPA-induced MCP-1 in NRK-49F cells
class.name: NO
//
molecule: COc1cc(C(=O)N(CCCc2ccccc2F)CCOCC(=O)O)cc(OC)c1C
tested.target: LPA-induced MCP-1 in NRK-49F cells
class.name: YES
//
molecule: Cc1ncc(Cl)c(C(=O)N(CCCCC(=O)O)CCCc2ccccc2)n1
tested.target: LPA-induced MCP-1 in NRK-49F cells
class.name: NO

### Prompt Is reported Emax greater than or equal to 80% here: `COc1cc(C(=O)N(CCCOC(=O)NS(C)(=O)=O)CCCc2ccccc2)cc(OC)c1C`
### Response NO

### Prompt Exam item: decide whether the reported Emax for `COc1ccc(C2(C(=O)N(CCCCC(=O)O)CCCc3cccc(F)c3)CC2)cc1` is at least 80%.
### Response NO

### Prompt Tell me whether Emax is at least 80% here: `COc1cc(C(=O)N(CCCCC(=O)O)CCCCc2ccccc2)cc(OC)c1C`
### Response NO

### Prompt Is Emax at least 80%? Consider `COc1cc(OC)cc(C(=O)N(CCCCC(=O)O)CCCc2ccccc2Cl)c1`
### Response NO

### Prompt Textbook exercise: given the entry `COc1ccc(C2(C(=O)N(CCCCC(=O)O)CCCc3ccccc3)CC2)cc1` , state whether its Emax is greater than or equal to 80%.
### Response YES

### Prompt API: above_or_equal(metric=Emax, cutoff=80%) for item `COc1cc(C(=O)N(CCCCC(=O)O)CCCc2ccccc2)cc(OC)c1F`
### Response NO

---

Target: LPAR1 (Homo sapiens, UniProt Q92633)
Construct: host or cells: U2OS
Assay: IP-One HTRF Assay
Assay type: cell-based
Settings: U2OS cells stably expressing LPAR1; LPA stimulation; IP-One Tb HTRF kit; read-out: Maximum Inhibition
Sorting guide: entries reporting Emax beneath 80% go in the 1 pile, the rest go in the -1 pile.

Please review the entries below; each comes with its answer.
molecule: COc1cc(OC)cc(C(=O)N(CCCCP(=O)(O)O)CCCc2ccccc2)c1 [Example 75]
class.name: 1
--
molecule: COc1cc(C(=O)N(CCCCC(=O)O)CCCc2cccc(Cl)c2)cc(OC)c1C [Example 38]
class.name: -1
--
molecule: COc1cc(C(=O)N(CCCCC(=O)O)CCCc2ccccc2F)cc(OC)c1C [Example 32]
class.name: -1

### Prompt Given COc1cc(C(=O)N(CCCc2ccccc2)CCCC(C)(O)C(=O)O)cc(OC)c1C (stereo not drawn) [Example 155] , is recorded Emax strictly lower than 80%?
### Response -1

### Prompt Strictly below 80% in Emax? COc1cc(C(=O)N(CCCCC(=O)O)CCCc2cccc(F)c2)cc(OC)c1C [Example 33]
### Response 1

### Prompt Hello, I'm reviewing records and need to know if Emax of COc1cc(OC)cc(C(=O)N(CCCCC(=O)O)CCCc2ccccc2)c1 [Example 7] is below 80%. Could you check?
### Response 1

Values from patent US20190119200A1
